List of IC50 values.
target: von Hippel-Lindau disease tumor suppressor/Estrogen receptor (Homo sapiens, UniProt P03372+P40337); assay: Induction of VHL E3 ligase mediated ERalpha degradation in human MCF7 cells assessed as downregulation of ERalpha expression by cell-based immunofluorescence assay
Sequence (P03372 whole entry): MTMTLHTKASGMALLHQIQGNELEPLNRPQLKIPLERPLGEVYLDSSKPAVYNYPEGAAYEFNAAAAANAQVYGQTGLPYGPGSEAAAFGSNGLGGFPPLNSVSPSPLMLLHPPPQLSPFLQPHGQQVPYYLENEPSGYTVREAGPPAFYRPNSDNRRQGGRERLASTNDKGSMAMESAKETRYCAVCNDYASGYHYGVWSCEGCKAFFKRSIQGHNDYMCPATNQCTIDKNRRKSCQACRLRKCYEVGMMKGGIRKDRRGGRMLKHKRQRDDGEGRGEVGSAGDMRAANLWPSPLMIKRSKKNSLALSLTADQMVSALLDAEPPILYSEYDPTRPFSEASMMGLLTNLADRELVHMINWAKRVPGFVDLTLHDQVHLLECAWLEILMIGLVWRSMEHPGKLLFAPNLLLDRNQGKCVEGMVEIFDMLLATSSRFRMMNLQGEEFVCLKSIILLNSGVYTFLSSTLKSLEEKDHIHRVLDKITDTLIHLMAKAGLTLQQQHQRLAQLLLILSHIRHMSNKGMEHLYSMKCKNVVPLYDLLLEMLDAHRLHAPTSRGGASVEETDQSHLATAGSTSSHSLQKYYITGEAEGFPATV
Sequence (P40337 whole entry): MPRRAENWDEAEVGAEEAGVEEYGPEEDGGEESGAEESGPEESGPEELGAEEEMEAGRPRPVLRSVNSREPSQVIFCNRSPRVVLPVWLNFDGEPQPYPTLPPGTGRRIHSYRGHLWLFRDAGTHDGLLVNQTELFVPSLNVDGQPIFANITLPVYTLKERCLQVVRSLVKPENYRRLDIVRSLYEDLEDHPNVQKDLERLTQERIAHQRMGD
Kindly provide the numeric value in pM only, without the unit symbol.

Guide cases for IC50, answers given:
Cc1ncsc1-c1ccc([C@H](C)NC(=O)[C@@H]2C[C@@H](O)CN2C(=O)[C@@H](NC(=O)COCCOCCCCCOc2cc(F)c([C@@H]3c4[nH]c5ccccc5c4C[C@@H](C)N3CC(C)(C)F)c(F)c2)C(C)(C)C)cc1 ... 600
Cc1ncsc1-c1ccc([C@H](C)NC(=O)[C@@H]2C[C@@H](O)CN2C(=O)[C@@H](NC(=O)COCCOCCOCCOc2cc(F)c([C@@H]3c4[nH]c5ccccc5c4C[C@@H](C)N3CC(C)(C)F)c(F)c2)C(C)(C)C)cc1 ... 300

For the compound Cc1ncsc1-c1ccc(CNC(=O)[C@@H]2C[C@@H](O)CN2C(=O)[C@@H](NC(=O)COCCOCCC(F)(F)CCOc2cc(F)c([C@@H]3c4[nH]c5ccccc5c4C[C@@H](C)N3CC(C)(C)F)c(F)c2)C(C)(C)C)cc1 , what IC50 is on record?
800

Which IC50 is listed for Cc1ncsc1-c1ccc(CNC(=O)[C@@H]2C[C@@H](O)CN2C(=O)[C@@H](NC(=O)COCCCOCCOc2cc(F)c([C@@H]3c4[nH]c5ccccc5c4C[C@@H](C)N3CC(C)(C)F)c(F)c2)C(C)(C)C)cc1 ?
400

====

biological target: von Hippel-Lindau disease tumor suppressor/Estrogen receptor (Homo sapiens, UniProt P03372+P40337); test: Induction of VHL E3 ligase mediated ERalpha degradation in human MCF7 cells at 0.3 uM by cell-based immunofluorescence assay
Sequence (P03372 whole entry, looked up): as the sequence (P03372 whole entry) above
Sequence (P40337 whole entry, looked up): as the sequence (P40337 whole entry) above
RECORDED_ENDPOINT: Activity

Cc1ncsc1-c1ccc(CNC(=O)[C@@H]2C[C@@H](O)CN2C(=O)[C@@H](NC(=O)COCCOCCC(F)(F)CCOc2cc(F)c([C@@H]3c4[nH]c5ccccc5c4C[C@@H](C)N3CC(C)(C)F)c(F)c2)C(C)(C)C)cc1 ... > 90%
Cc1ncsc1-c1ccc([C@H](C)NC(=O)[C@@H]2C[C@@H](O)CN2C(=O)[C@@H](NC(=O)COCCOCCCCCOc2cc(F)c([C@@H]3c4[nH]c5ccccc5c4C[C@@H](C)N3CC(C)(C)F)c(F)c2)C(C)(C)C)cc1 ... > 90%
C[C@]12CC[C@@H]3c4ccc(O)cc4C[C@@H](CCCCCCCCC[S+]([O-])CCCC(F)(F)C(F)(F)F)[C@H]3[C@@H]1CC[C@@H]2O (stereo partly specified) ... 100%
Cc1ncsc1-c1ccc(CNC(=O)[C@@H]2C[C@@H](O)CN2C(=O)[C@@H](NC(=O)COCCCOCCOc2cc(F)c([C@@H]3c4[nH]c5ccccc5c4C[C@@H](C)N3CC(C)(C)F)c(F)c2)C(C)(C)C)cc1 ... > 90%
Cc1ncsc1-c1ccc(CNC(=O)[C@@H]2C[C@@H](O)CN2C(=O)[C@@H](NC(=O)COCCCOCCCOc2cc(F)c([C@@H]3c4[nH]c5ccccc5c4C[C@@H](C)N3CC(C)(C)F)c(F)c2)C(C)(C)C)cc1 ... > 90%

GET /values?readout=Activity&item= Cc1ncsc1-c1ccc([C@H](C)NC(=O)[C@@H]2C[C@@H](O)CN2C(=O)[C@@H](NC(=O)COCCOCCOCCOc2cc(F)c([C@@H]3c4[nH]c5ccccc5c4C[C@@H](C)N3CC(C)(C)F)c(F)c2)C(C)(C)C)cc1
> 90%
